- System: U2OS
- Protocol Details: Multiplex assay against U2OS
- Format: toxicity, cell-based
- Test Parameters: human, 48 h, 1 µM, compound concentration 1 uM, replicate 1
Population Healthy Nuclei (%) values for the compounds below.
# output: bare number, implied unit %

Completed entries (count: 3):
Cc1nc(-c2ccc(-c3ccc(C(=O)N4CCc5cc6c(cc54)C4(CCN(C)CC4)CO6)cc3)c(C)c2)no1 [SB-224289] | 77
C[C@@H](NCCCc1cccc(C(F)(F)F)c1)c1cccc2ccccc12.Cl [CINACALCET HYDROCHLORIDE] | 80
O=C1NCN(c2ccccc2)C12CCN(CCCOc1ccc(F)cc1)CC2 [SPIRAMIDE] | 85

Let us examine a further case.
Prompt line: Fill in reported Population Healthy Nuclei (%) for this entry: Cc1csc2c(N[C@@H](C)CN3CCN(S(=O)(=O)c4ccc(Cl)c(Cl)c4)CC3)ncnc12
Response line: 79

====

- Tested on: Fibroblast
- Protocol Details: Multiplex assay against human fibroblast
- Assay type: toxicity, cell-based
- Test Parameters: 24 h, 1 µM, compound concentration 1 uM, replicate 2
Measured Attribute: Population Mitochondria Different-Phenotype (%)
The response must be a number in % with no trailing unit.

Worked cases, Population Mitochondria Different-Phenotype (%) given:
CN(C)C(=O)/C(C#N)=C/c1ccc(-c2nc3cnc4[nH]ccc4c3n2C2CCCCC2)o1 | 10
CN(C)CC#Cc1ccc(OCCCc2sc(N3CCc4cccc(C(=O)Nc5nc6ccccc6s5)c4C3)nc2C(=O)O)c(F)c1 | 32
C[C@@H](NCCCc1cccc(C(F)(F)F)c1)c1cccc2ccccc12.Cl [CINACALCET HYDROCHLORIDE] | 26

Prompt line: Please report Population Mitochondria Different-Phenotype (%) for the following compound: NC(=O)Nc1cc(-c2cccc(F)c2)sc1C(=O)N[C@H]1CCCNC1
Response line: 0

Prompt line: Tell me its Population Mitochondria Different-Phenotype (%) given CCN(CC)CCCCNc1ncc2cc(-c3cc(OC)cc(OC)c3)c(NC(=O)NC(C)(C)C)nc2n1 as the entry.
Response line: 0

Prompt line: Please supply the value of reported Population Mitochondria Different-Phenotype (%) for the item CNCc1ccc(-c2cc(-c3nc(-c4ccc(S(=O)(=O)C(C)C)cc4)cnc3N)on2)cc1
Response line: 12

Prompt line: Read off the recorded Population Mitochondria Different-Phenotype (%) for Cl.N#Cc1ccc2[nH]cc(CCCCN3CCN(c4ccc5oc(C(N)=O)cc5c4)CC3)c2c1 [VILAZODONE HYDROCHLORIDE]
Response line: 19

Prompt line: Entry Cn1cc(-c2[nH]c3cc(NC(=O)[C@H](N)C4CCCCC4)cc4c3c2C=NNC4=O)cn1 needs its Population Mitochondria Different-Phenotype (%) filled in; supply it.
Response line: 6

====

- Test system: Fibroblast
- Protocol Details: Multiplex assay against human fibroblast
- Assay type: toxicity, cell-based
- Test Parameters: 24 h, 10 µM, compound concentration 10 uM, replicate 2
Measured Attribute: Population Healthy Nuclei (%)
Write the value in % as a bare number.

COc1cc2nccc(Oc3ccc(NC(=O)Nc4cc(C)on4)c(Cl)c3)c2cc1OC.O | 60

Prompt line: Report measured Population Healthy Nuclei (%); entry is CN1CCC[C@@H]1CCO[C@](C)(c1ccccc1)c1ccc(Cl)cc1.O=C(O)/C=C/C(=O)O [CLEMASTINE FUMARATE]
Response line: 36

Prompt line: Specify Population Healthy Nuclei (%) for Cc1cc(C)cc(-c2cnc3cc(Cl)c(-c4cccc(O)c4)cc3c2OCCCN)c1 and stop.
Response line: 3

Prompt line: Identify the reported Population Healthy Nuclei (%) for the following entry. CN(C)C(=O)/C(C#N)=C/c1ccc(-c2nc3cnc4[nH]ccc4c3n2C2CCCCC2)o1
Response line: 53

Prompt line: // fetch Population Healthy Nuclei (%) given entry C=CC(=O)Nc1cc2c(Nc3ccc(F)c(Cl)c3)ncnc2cc1OCCCN1CCOCC1.Cl.Cl [CANERTINIB DIHYDROCHLORIDE]
Response line: 20

Prompt line: Dear colleague, please send me the reported Population Healthy Nuclei (%) for CC(C)(O)CNc1ncc(-c2ccnc(Nc3ccnc(Cl)c3)n2)c(CC2CC2)n1 when you can.
Response line: 40

Prompt line: For the molecule CC[C@H](C)C(=O)O[C@H]1C[C@@H](C)C=C2C=C[C@H](C)[C@H](CC[C@@H]3C[C@@H](O)CC(=O)O3)[C@H]21 , report Population Healthy Nuclei (%).
Response line: 79

Prompt line: State its Population Healthy Nuclei (%) for this molecule: Cc1[nH]c(/C=C2\C(=O)Nc3ccc(S(=O)(=O)N(C)c4cccc(Cl)c4)cc32)c(C)c1C(=O)N1CCN(C)CC1
Response line: 73

Prompt line: Please supply the value of reported Population Healthy Nuclei (%) for the item c1cn2cc(-c3ccc4cn[nH]c4c3)nc(Nc3ccc(N4CCOCC4)cc3)c2n1
Response line: 2

Prompt line: Check the records and state Population Healthy Nuclei (%) for CN(C)CC#Cc1ccc(OCCCc2sc(N3CCc4cccc(C(=O)Nc5nc6ccccc6s5)c4C3)nc2C(=O)O)c(F)c1
Response line: 45

Prompt line: Please give the documented Population Healthy Nuclei (%) of Cc1nc(-c2ccc(-c3ccc(C(=O)N4CCc5cc6c(cc54)C4(CCN(C)CC4)CO6)cc3)c(C)c2)no1
Response line: 56

Prompt line: Provide Population Healthy Nuclei (%) value for the following molecule: CN1CCN(CCOc2cc(OC3CCOCC3)c3c(Nc4c(Cl)ccc5c4OCO5)ncnc3c2)CC1
Response line: 54

Prompt line: Give a short answer stating reported Population Healthy Nuclei (%) for O=C1NCN(c2ccccc2)C12CCN(CCCOc1ccc(F)cc1)CC2 [SPIRAMIDE] .
Response line: 78

Prompt line: For the molecule Cc1csc2c(N[C@@H](C)CN3CCN(S(=O)(=O)c4ccc(Cl)c(Cl)c4)CC3)ncnc12 , report Population Healthy Nuclei (%).
Response line: 57

Prompt line: Could you please provide reported Population Healthy Nuclei (%) for COc1cccc([C@@H](C)NCCCc2ccccc2Cl)c1.Cl [TECALCET HYDROCHLORIDE] ? Thanks!
Response line: 70

Prompt line: Please give measured Population Healthy Nuclei (%) of the following entry: OC1(c2ccc(Cl)cc2)CCN(Cc2c[nH]c3ccccc23)CC1
Response line: 27

Prompt line: Supply recorded Population Healthy Nuclei (%) for C[C@@H](NCCCc1cccc(C(F)(F)F)c1)c1cccc2ccccc12.Cl [CINACALCET HYDROCHLORIDE] here.
Response line: 32

Prompt line: Answer with the recorded Population Healthy Nuclei (%) for the molecule listed here: CC(C)NCC(O)COc1ccc(CCOCC2CC2)cc1.Cl (centres undefined) [BETAXOLOL HYDROCHLORIDE]
Response line: 78

Prompt line: Please give measured Population Healthy Nuclei (%) of the following entry: Cl.N#Cc1ccc2[nH]cc(CCCCN3CCN(c4ccc5oc(C(N)=O)cc5c4)CC3)c2c1 [VILAZODONE HYDROCHLORIDE]
Response line: 9

Prompt line: Note Population Healthy Nuclei (%) for the molecule shown: Cc1nc(-c2cn3c(n2)-c2ccc(-c4cnn(C(C)(C)C(N)=O)c4)cc2OCC3)n(C(C)C)n1
Response line: 51

Prompt line: Using known records, supply Population Healthy Nuclei (%) for C=CC(=O)Nc1ccc2ncnc(Nc3ccc(OCc4cccc(F)c4)c(Cl)c3)c2c1.Cc1ccc(S(=O)(=O)O)cc1
Response line: 69

Prompt line: Given CN(C)C(=O)N[C@H]1CC[C@H](CCN2CCN(c3cccc(Cl)c3Cl)CC2)CC1.Cl [CARIPRAZINE HYDROCHLORIDE] , respond with its Population Healthy Nuclei (%).
Response line: 55

Prompt line: Give the measured Population Healthy Nuclei (%) for Cc1nc(Nc2n[nH]c3c2CN(C(=O)N[C@H](CN(C)C)c2ccccc2)C3(C)C)c2sccc2n1
Response line: 45

Prompt line: Quickly give me recorded Population Healthy Nuclei (%) for Cn1cc(-c2[nH]c3cc(NC(=O)[C@H](N)C4CCCCC4)cc4c3c2C=NNC4=O)cn1
Response line: 29

====

- Tested on: HEK-293T
- Protocol Details: Multiplex assay against HEK293T
- Assay type: toxicity, cell-based
- Test Parameters: human, 48 h, 10 µM, compound concentration 10 uM, replicate 2
Measured Attribute: Population Healthy Nuclei (%)
# number only, unit % dropped from output

Previously resolved entries follow.
C[C@@]1(C(=O)Nc2ccc(F)nc2)CCCN1c1nc(Nc2cc(C3CC3)n[nH]2)c2cccn2n1 | 57
Cc1cc(C)cc(-c2cnc3cc(Cl)c(-c4cccc(O)c4)cc3c2OCCCN)c1 | 14
c1cn2cc(-c3ccc4cn[nH]c4c3)nc(Nc3ccc(N4CCOCC4)cc3)c2n1 | 25
O=C1NCN(c2ccccc2)C12CCN(CCCOc1ccc(F)cc1)CC2 [SPIRAMIDE] | 77

Okay, now this molecule:
Prompt line: Name the recorded Population Healthy Nuclei (%) of the molecule listed here: COc1cc2nccc(Oc3ccc(NC(=O)Nc4cc(C)on4)c(Cl)c3)c2cc1OC.O
Response line: 72
